# tgt: T1, factor XIIIa (human, UniProt P00488 39-732)
# T1 sequence (looked up): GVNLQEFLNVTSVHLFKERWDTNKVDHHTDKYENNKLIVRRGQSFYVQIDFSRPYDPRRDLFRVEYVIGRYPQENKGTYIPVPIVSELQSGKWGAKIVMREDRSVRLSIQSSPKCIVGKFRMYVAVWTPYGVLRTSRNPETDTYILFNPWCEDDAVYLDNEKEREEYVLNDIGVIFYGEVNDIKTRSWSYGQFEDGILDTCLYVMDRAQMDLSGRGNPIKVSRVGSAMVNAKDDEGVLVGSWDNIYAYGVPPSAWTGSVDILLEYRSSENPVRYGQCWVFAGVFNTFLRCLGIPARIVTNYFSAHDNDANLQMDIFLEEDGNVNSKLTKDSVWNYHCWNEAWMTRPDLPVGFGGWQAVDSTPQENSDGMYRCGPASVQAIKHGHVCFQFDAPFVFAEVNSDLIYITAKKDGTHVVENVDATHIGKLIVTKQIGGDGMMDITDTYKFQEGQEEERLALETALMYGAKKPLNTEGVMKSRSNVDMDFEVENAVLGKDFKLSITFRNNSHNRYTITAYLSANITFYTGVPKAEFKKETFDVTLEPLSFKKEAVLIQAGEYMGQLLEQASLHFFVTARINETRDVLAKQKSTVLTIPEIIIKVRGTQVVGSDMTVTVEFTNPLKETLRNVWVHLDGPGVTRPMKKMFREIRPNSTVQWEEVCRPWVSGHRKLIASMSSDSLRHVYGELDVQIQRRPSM
# assay_protocol: cell-based or functional assay
Form field: Relative inhibitory effect (%) at 5.45 µM, wild type = 100% (one value per entry).
Output should be the measured figure followed by the unit it is expressed in.

Past entries and their recorded results:
modified tridegin F58A (protein, not shown: small tags and cut ends) MKLLPCKEWHQGIPNPRCWCGADLECAQDQYCAFIPQCRPRSELIKPMDDIYQRPVEAPNLPLKPREE : 60%
modified tridegin Y31A (protein, not shown: small tags and cut ends) MKLLPCKEWHQGIPNPRCWCGADLECAQDQACAFIPQCRPRSELIKPMDDIYQRPVEFPNLPLKPREE : 69%
modified tridegin Cys variant C20A (protein, not shown: small tags and cut ends) MKLLPCKEWHQGIPNPRCWAGADLECAQDQYCAFIPQCRPRSELIKPMDDIYQRPVEFPNLPLKPREE : 63%
modified tridegin K02A (protein, not shown: small tags and cut ends) MALLPCKEWHQGIPNPRCWCGADLECAQDQYCAFIPQCRPRSELIKPMDDIYQRPVEFPNLPLKPREE : 113%
modified tridegin L24A (protein, not shown: small tags and cut ends) MKLLPCKEWHQGIPNPRCWCGADAECAQDQYCAFIPQCRPRSELIKPMDDIYQRPVEFPNLPLKPREE : 92%

Note: attention shifts to another entry.
[Q] Identify Relative inhibitory effect (%) at 5.45 µM, wild type = 100% associated with the binder modified tridegin Cys variant C18A (protein, not shown: small tags and cut ends) MKLLPCKEWHQGIPNPRAWCGADLECAQDQYCAFIPQCRPRSELIKPMDDIYQRPVEFPNLPLKPREE
[A] 93%
